The values you see were collected from PubChem BioAssay AID2330.

Please go through the items and note down their inhibition.
experiment: NOMO-1 AML cell viability reduction, primary screen, STK33 inhibitor project, CellTiter-Glo luminescence (AID 2330); details: NOMO-1 AML viability, 72 h, stronger effect = higher value, concentration not given here
Hit rate of the full screen: of about 37,000 compounds, about 2,800 (7.6%) were called active. Roughly 1% stayed inconclusive and do not appear here. The full list was thinned out, with actives kept by preference.
Write the answer as a number in %, unit excluded.

I am curious: what inhibition value has been reported for "COc1cc(/C=C/C(=O)O[C@@H]2O[C@H](CO[C@@H]3O[C@H](CO)[C@@H](O)[C@H](O)[C@H]3O)[C@@H](O)[C@H](O)[C@H]2OC(=O)/C=C/c2cc(OC)c(O)c(OC)c2)cc(OC)c1O" ?
14.7

Looking for the measured inhibition of "N#Cc1c(NC(=O)CCn2cnc3ccccc3c2=O)sc2c1CCCC2" , can you help?
27.7

Can you share its inhibition? I mean this compound: "CCN1CCN(C(=O)N[C@@H](C(=O)N[C@@H]2C(=O)N3C(C(=O)O)=C(CSc4nnnn4C)CS[C@H]23)c2ccc(O)cc2)C(=O)C1=O"
16.9

# get_value(readout='inhibition', item= "C[C@H](CO)N1C[C@H](C)[C@@H](CN(C)Cc2ccc(Cl)c(Cl)c2)Oc2c(NC(=O)Nc3ccccc3)cccc2C1=O" )
59.3

Please look up its inhibition: "COc1ccc(NC(=O)CSc2nnc(-c3ccc(Br)cc3)n2C)cc1"
16.2

Quick one: inhibition for "COc1ccc(S(=O)(=O)N(C)C[C@H]2Oc3ccc(NC(=O)Nc4c(C)noc4C)cc3C(=O)N([C@H](C)CO)C[C@H]2C)cc1" ?
8.03

So what does the record say about inhibition for "C[C@H]1CN([C@@H](C)CO)C(=O)c2cc(NS(=O)(=O)c3ccc(F)cc3)ccc2O[C@H]1CN(C)CC1CC1" ?
16.3

Please look up its inhibition: "C[C@@H]1CN([C@H](C)CO)C(=O)c2cccc(NC(=O)Nc3ccc(F)cc3)c2O[C@@H]1CN(C)Cc1ccc(C(F)(F)F)cc1"
35.7

Quick one: inhibition of "C[C@@H]1CN([C@H](C)CO)C(=O)c2cc(NS(=O)(=O)c3ccc(F)cc3)ccc2O[C@@H]1CN(C)C(=O)Nc1cccc2ccccc12" ?
15.5

Entry "C[C@H](CO)N1C[C@H](C)[C@H](CN(C)S(=O)(=O)c2cn(C)cn2)Oc2c(NC(=O)c3ccncc3)cccc2C1=O" : reported inhibition = ?
29.1

Which inhibition reading was recorded for the compound "C[C@@H]1CN([C@@H](C)CO)C(=O)c2cc(NS(=O)(=O)c3ccccc3)ccc2O[C@H]1CN(C)CC1CC1" ?
-13.4

Give its inhibition value. Item: "Cc1ccc(S(=O)(=O)N(C)C[C@H]2OCCCC[C@@H](C)Oc3ccc(NS(C)(=O)=O)cc3C(=O)N([C@H](C)CO)C[C@@H]2C)cc1"
20.5

Name the reported inhibition value associated with the compound "CCOc1cc(S(=O)(=O)NC2CC(C)(C)NC(C)(C)C2)ccc1F"
-9.77

Given the entry "Cc1ccc(-n2nnnc2-c2cnn(-c3ccccc3)c2C)cc1" , report its measured inhibition.
29.6

// lookup inhibition for "COc1ccc(NC(=O)N(C)C[C@@H]2Oc3c(NS(=O)(=O)c4ccc(OC)cc4)cccc3C(=O)N([C@H](C)CO)C[C@@H]2C)cc1"
14.6

Query (compound): "C[C@H]1CN([C@@H](C)CO)C(=O)c2cccc(NS(=O)(=O)c3ccc(Cl)cc3)c2O[C@@H]1CN(C)Cc1ccc(Oc2ccccc2)cc1" ; field requested: inhibition
44.7

// inhibition lookup, key: "COc1ccc(NC(=O)Nc2ccc3c(c2)C(=O)N([C@H](C)CO)C[C@H](C)[C@@H](CN(C)C(=O)NC2CCCCC2)OCCCC[C@@H](C)O3)cc1"
-9.45

// query inhibition value for entry "Cc1ccc2nc(C)c3c(c2c1)N(c1ccccc1)CC3"
122

Which value of inhibition has been reported for "Cc1noc(C)c1NC(=O)Nc1ccc2c(c1)C(=O)N([C@@H](C)CO)C[C@@H](C)[C@@H](CN(C)CC1CCCCC1)O2" in the records?
-6.14

Returns the measured inhibition for the input compound. Input: "C[C@@H]1CN([C@@H](C)CO)C(=O)c2cccc(NS(=O)(=O)c3cccs3)c2O[C@H]1CN(C)Cc1ccncc1"
-14.5

Report inhibition for "CC(C)NC(=O)Nc1cccc2c1O[C@@H](CN(C)S(=O)(=O)c1ccc(F)cc1)[C@@H](C)CN([C@H](C)CO)C2=O" please.
-7.11

I am curious: what inhibition value has been reported for "CC(C)NC(=O)N(C)C[C@@H]1Oc2ccc(NS(=O)(=O)c3cn(C)cn3)cc2C(=O)N([C@@H](C)CO)C[C@@H]1C" ?
18.9

Record request: inhibition value, item "C[C@@H]1CN([C@@H](C)CO)C(=O)c2cccc(NC(=O)Nc3ccc(F)cc3)c2O[C@@H]1CN(C)Cc1ccc(C(=O)O)cc1"
0.82

Find the recorded inhibition belonging to "C[C@H]1CN([C@@H](C)CO)C(=O)c2cccc(NC(=O)C3CCCCC3)c2O[C@H]1CN(C)Cc1ccc(C(F)(F)F)cc1" and report it.
45.9

What value of inhibition has been recorded for this entry: "COC(=O)c1ccccc1NC(=O)CN(c1ccc2c(c1)OCCO2)S(C)(=O)=O"
-1.24

Field request: inhibition | item: O=C(OCC1OC(Oc2ccc(O)cc2COC(=O)C2(O)C(O)CCC(O)C2O)C(O)C(O)C1O)c1ccccc1 (stereo not given)
17

Would you kindly share the measured inhibition for "Cc1noc(C)c1NC(=O)Nc1ccc2c(c1)C(=O)N([C@@H](C)CO)C[C@H](C)[C@H](CN(C)Cc1ccc(-c3ccccc3)cc1)O2" ?
28.6

Could you share which inhibition value was measured for "CCn1c(SCC(=O)Nc2sc3c(c2C#N)CCCC3)nnc1-c1ccccc1O" ?
-7.99

// returns reported inhibition for input CN1CCN(CC(=O)Nc2sc3c(c2C#N)CCC(C(C)(C)C)C3)CC1 (stereo not given)
115

Entry "Cc1noc(C)c1NC(=O)Nc1ccc2c(c1)C(=O)N([C@H](C)CO)C[C@H](C)[C@@H](CN(C)Cc1ccc3c(c1)OCO3)OCCCC[C@@H](C)O2" has what inhibition?
0.0539
